These data points were gathered from patent US6313177A.

biological target: recombinant HIV-1 protease (Human immunodeficiency virus type 1 group M subtype B, UniProt P04585); construct: recombinant HIV-1 protease; purchased Bachem Bioscience; experiment: Fluorometric (FRET) enzymatic assay for the inhibition constant (Ki) against the HIV protease; assay type: biochemical; details: Table 1, benzylated D-mannitol derivatives; pH 4.7, 30° C., substrate 10 μM, protease 18.3 nM
value_kind: pKi
Remember the convention: pKi equals -log10 of concentration in molar.

# input compound: "Nc1ccc(CO[C@H](COCc2ccccc2)[C@@H](O)[C@H](O)[C@@H](COCc2ccccc2)OCc2ccccc2)cc1" ; wanted: its pKi
5.48

What pKi value was documented for this compound, "O[C@@H]([C@H](O)[C@@H](COCc1ccccc1)OCc1ccc(Br)cc1)[C@@H](COCc1ccccc1)OCc1ccc(Br)cc1" ?
5.68

// query pKi value for entry "Oc1ccc(COC[C@@H](OCc2ccc(F)cc2)[C@@H](O)[C@H](O)[C@@H](COCc2ccc(O)cc2)OCc2ccc(F)cc2)cc1"
6.40

Please look up its pKi: "COC(=O)c1ccc(COC[C@@H](OCc2ccccc2)[C@@H](O)[C@H](O)[C@@H](COCc2ccc(C(=O)OC)cc2)OCc2ccccc2)cc1"
5.70

Fill in the blank: the reported pKi of "O[C@@H]([C@H](O)[C@@H](COCc1ccccc1)OCc1ccc(F)cc1F)[C@@H](COCc1ccccc1)OCc1ccc(F)cc1F" is ____.
5.59

Need pKi of "COC(=O)c1ccc(CO[C@H](COCc2ccccc2)[C@@H](O)[C@H](O)[C@@H](COCc2ccccc2)OCc2ccc(C(=O)O)cc2)cc1" , thanks.
5.85

====

molecular target: recombinant HIV-1 protease (Human immunodeficiency virus type 1 group M subtype B, UniProt P04585); construct: recombinant HIV-1 protease; purchased Bachem Bioscience; experiment: Fluorometric (FRET) enzymatic assay for the inhibition constant (Ki) against the HIV protease; type: biochemical; settings: Table 1, benzylated D-mannitol derivatives; pH 4.7, 30° C., substrate 10 μM, protease 18.3 nM
value_kind: Ki

Entry "CC(C)COC(=O)c1ccc(COC[C@@H](OCc2ccccc2)[C@@H](O)[C@H](O)[C@@H](COCc2ccc(C(=O)OCC(C)C)cc2)OCc2ccccc2)cc1" has what Ki?
> 3000 nM

Record request: Ki value, item "Cc1ccc(COC[C@@H](OCc2ccc(C)cc2)[C@@H](O)[C@H](O)[C@@H](COCc2ccc(C)cc2)OCc2ccc(C)cc2)cc1"
> 1000 nM

I have this compound here, "O[C@@H]([C@H](O)[C@@H](COCc1ccc(C(F)(F)F)cc1)OCc1ccccc1)[C@@H](COCc1ccc(C(F)(F)F)cc1)OCc1ccccc1" , and I need its recorded Ki.
> 2000 nM
